Some molecules, each annotated with its measured IC50.
# MEASURED_ON: FGFR2 (h) (Homo sapiens, UniProt P21802)
# Sequence (P21802 22-821): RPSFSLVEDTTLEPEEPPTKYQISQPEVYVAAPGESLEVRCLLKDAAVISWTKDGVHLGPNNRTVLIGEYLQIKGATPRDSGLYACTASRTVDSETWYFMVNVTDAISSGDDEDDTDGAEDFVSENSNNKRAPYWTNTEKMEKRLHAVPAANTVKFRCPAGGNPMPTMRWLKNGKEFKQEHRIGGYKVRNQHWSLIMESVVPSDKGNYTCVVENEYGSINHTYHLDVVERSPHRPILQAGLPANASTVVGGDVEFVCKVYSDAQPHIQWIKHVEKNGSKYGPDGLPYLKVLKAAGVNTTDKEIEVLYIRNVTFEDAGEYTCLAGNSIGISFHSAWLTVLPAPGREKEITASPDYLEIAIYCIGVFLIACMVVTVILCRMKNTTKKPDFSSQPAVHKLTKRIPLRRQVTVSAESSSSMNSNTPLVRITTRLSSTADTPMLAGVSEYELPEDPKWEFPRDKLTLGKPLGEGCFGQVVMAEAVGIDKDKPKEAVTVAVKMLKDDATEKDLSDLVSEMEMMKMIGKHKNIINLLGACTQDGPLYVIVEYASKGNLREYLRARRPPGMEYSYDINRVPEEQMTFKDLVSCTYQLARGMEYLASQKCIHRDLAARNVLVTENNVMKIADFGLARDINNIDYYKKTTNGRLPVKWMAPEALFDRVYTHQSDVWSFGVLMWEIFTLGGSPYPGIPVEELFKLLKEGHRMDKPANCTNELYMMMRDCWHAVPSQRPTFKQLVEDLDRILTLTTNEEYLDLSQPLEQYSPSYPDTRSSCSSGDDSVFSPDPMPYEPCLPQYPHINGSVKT
# EXPERIMENTAL_PROTOCOL: FGFR2 (enzymatic assay), TR-FRET
# Assay type: biochemical
# COND: enzymatic assay; average values if tested multiple times; read-out: FGFR 2 pIC50 (converted)
Where a name gives a salt, the structure may show the parent alone.
MEASURED_QUANTITY: IC50 (nM)

1. COc1cc(OC)c(F)c(N(CCCN2CCCC2=O)c2ccc3ncc(-c4cnn(C)c4)nc3n2)c1F    2.82
2. COc1cc(OC)cc(N(Cc2ncc[nH]2)c2ccc3ncc(-c4cnn(C)c4)nc3n2)c1 [Compound 24]    1.12
3. COc1cc(OC)cc(N(CC(O)C(F)(F)F)c2ccc3ncc(-c4cnn(C)c4)nc3n2)c1 (single isomer, unassigned) [Compound 33]    2.04
4. COc1cc(OC)c(F)c(N(CCN)c2ccc3ncc(-c4cnn(C)c4)nc3n2)c1F    1.78
5. COc1cc(OC)c(F)c(N(Cc2ncc[nH]2)c2ccc3ncc(-c4cnn(C)c4)nc3n2)c1 [23-hydrochloric acid salt]    1.41
6. COc1cc(OC)c(F)c(N(CC2CCC(=O)N2)c2ccc3ncc(-c4cnn(C)c4)nc3n2)c1F (stereo not shown) [Compound 48]    3.24
7. COc1cc(OC)cc(N(Cc2ncccn2)c2ccc3ncc(-c4cnn(C)c4)nc3n2)c1    3.98

----------
Some compounds, each annotated with its measured BAF3-FGFR1 (MIN IL3) pIC50.
# MEASURED_ON: Ba/F3-FGFR1-transfected cells (Homo sapiens, UniProt P11362)
# Construct: BAF3-FGFR1 (MIN IL3) pIC50; other: minus IL3
# Sequence (P11362 whole entry, change not shown): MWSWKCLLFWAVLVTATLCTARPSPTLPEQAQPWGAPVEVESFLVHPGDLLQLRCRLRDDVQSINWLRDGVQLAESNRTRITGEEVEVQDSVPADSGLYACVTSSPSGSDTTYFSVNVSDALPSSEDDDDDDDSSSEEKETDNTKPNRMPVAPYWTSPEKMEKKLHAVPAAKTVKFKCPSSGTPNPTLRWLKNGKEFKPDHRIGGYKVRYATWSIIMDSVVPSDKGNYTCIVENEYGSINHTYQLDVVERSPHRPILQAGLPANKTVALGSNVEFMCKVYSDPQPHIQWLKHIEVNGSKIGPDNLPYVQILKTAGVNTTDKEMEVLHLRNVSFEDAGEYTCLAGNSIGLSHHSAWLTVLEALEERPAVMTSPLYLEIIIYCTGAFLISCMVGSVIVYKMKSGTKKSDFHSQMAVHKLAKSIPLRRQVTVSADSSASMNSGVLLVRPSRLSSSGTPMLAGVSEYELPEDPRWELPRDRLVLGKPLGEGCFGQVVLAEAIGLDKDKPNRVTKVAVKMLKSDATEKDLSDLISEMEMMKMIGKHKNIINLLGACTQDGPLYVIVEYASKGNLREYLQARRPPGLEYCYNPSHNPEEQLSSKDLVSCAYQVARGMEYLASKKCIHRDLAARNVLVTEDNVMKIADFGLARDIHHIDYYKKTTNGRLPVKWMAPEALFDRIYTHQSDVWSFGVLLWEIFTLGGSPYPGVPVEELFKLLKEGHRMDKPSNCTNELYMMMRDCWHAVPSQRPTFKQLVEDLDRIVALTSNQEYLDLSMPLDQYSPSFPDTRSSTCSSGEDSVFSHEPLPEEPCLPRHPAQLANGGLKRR
# EXPERIMENTAL_PROTOCOL: Ba/F3-FGFR1 (minus IL3) cellular proliferation assay, Alamar Blue
# Format: cell-based
MEASURED_QUANTITY: BAF3-FGFR1 (MIN IL3) pIC50

1. COc1cc(OC)c(F)c(N(CC2CCOC2)c2ccc3ncc(-c4cnn(C)c4)nc3n2)c1 (single isomer, unassigned) [Compound 172]    6.54
2. COc1cc(OC)c(F)c(N(CCNC2COC2)c2ccc3ncc(-c4cnn(C)c4)nc3n2)c1F (single isomer, unassigned)    7.88
3. COc1cc(OC)c(F)c(N(CC(=O)NC(C)C)c2ccc3ncc(-c4cnn(C)c4)nc3n2)c1    6.70
4. COc1cc(OC)c(F)c(N(CC(=O)NCCO)c2ccc3ncc(-c4cnn(C)c4)nc3n2)c1    6.09
5. COc1cc(OC)c(F)c(N(CC2CCC(=O)N2)c2ccc3ncc(-c4cnn(C)c4)nc3n2)c1F (stereo not shown) [Compound 192]    7.73
6. COc1cc(O)c(F)c(N(Cc2ncc[nH]2)c2ccc3ncc(-c4cnn(C)c4)nc3n2)c1    8.08
7. COc1cc(OC)cc(N(Cc2nn[nH]n2)c2ccc3ncc(-c4cnn(C)c4)nc3n2)c1    <5

----------
# MEASURED_ON: Ba/F3-KDR-transfected cells (Homo sapiens)
# Construct: BAF3-KDR (MIN IL3) pIC50; other: minus IL3
# Sequence (P35968 whole entry, change not shown): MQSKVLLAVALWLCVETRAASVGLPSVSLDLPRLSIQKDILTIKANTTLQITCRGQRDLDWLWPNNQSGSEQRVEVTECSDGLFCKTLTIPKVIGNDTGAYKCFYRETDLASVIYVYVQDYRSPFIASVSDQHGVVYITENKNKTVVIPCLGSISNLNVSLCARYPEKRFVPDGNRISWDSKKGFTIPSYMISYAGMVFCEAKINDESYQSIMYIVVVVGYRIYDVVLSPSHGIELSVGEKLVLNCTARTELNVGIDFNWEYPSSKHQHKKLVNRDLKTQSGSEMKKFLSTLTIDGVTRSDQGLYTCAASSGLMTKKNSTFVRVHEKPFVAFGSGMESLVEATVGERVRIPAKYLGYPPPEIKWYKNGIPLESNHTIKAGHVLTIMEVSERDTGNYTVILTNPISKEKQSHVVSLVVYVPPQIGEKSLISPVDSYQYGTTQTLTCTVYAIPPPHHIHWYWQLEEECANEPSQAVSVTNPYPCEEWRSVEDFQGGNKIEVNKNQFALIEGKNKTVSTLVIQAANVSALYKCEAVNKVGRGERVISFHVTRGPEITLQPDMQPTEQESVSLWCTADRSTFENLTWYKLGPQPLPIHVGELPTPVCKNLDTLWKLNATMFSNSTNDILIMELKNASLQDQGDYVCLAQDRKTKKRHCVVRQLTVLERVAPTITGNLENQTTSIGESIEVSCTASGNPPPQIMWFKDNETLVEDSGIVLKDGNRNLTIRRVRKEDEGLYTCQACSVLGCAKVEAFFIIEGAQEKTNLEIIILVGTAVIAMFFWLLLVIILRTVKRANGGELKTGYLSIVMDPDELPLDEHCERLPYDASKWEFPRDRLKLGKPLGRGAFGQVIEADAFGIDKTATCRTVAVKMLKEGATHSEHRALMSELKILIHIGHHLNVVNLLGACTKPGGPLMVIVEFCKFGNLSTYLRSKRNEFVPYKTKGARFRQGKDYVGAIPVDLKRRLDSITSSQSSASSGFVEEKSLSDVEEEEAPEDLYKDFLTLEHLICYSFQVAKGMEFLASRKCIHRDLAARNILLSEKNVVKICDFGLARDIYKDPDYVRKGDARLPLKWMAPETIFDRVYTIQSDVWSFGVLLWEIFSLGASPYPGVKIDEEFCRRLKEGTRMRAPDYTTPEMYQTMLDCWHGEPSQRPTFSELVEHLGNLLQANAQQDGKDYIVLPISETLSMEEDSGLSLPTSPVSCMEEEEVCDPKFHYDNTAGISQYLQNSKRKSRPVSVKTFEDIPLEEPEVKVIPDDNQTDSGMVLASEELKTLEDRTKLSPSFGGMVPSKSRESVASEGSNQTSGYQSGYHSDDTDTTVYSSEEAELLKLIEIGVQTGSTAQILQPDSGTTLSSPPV
# EXPERIMENTAL_PROTOCOL: Ba/F3-KDR (minus IL3) cellular proliferation assay, Alamar Blue
# Type: cell-based
Where a name gives a salt, the structure may show the parent alone.
Could you mark each record met if its BAF3-KDR (MIN IL3) pIC50 falls strictly under 6, and not met if it equals or exceeds it?

1) COc1cc(OC)c(F)c(N(Cc2ccn(C)n2)c2ccc3ncc(-c4cnn(C)c4)nc3n2)c1    not met
2) COc1cc(OC)cc(N(CCNC(C)=O)c2ccc3ncc(-c4cnn(C)c4)nc3n2)c1    met
3) COc1cc(OC)c(F)c(N(CC(C)(C)O)c2ccc3ncc(-c4cnn(C)c4)nc3n2)c1    met
4) COc1cc(OC)c(F)c(/N=c2\ccc3ncc(-c4cnn(C)c4)nc3n2CCN(C2COC2)C2COC2)c1F    not met
5) COc1cc(/N=c2\ccc3ncc(-c4cnn(C)c4)nc3n2CC2COC2)c(F)c(OC)c1    met
6) CNCCn1/c(=N/c2c(Cl)ccc(OC)c2Cl)ccc2ncc(-c3cnn(C)c3)nc21    met
7) COc1cc(OC)c(F)c(N(Cc2ncc[nH]2)c2ccc3ncc(-c4cnn(C)c4)nc3n2)c1F    not met
8) COc1cc(OC)c(F)c(N(Cc2nc(Br)c[nH]2)c2ccc3ncc(-c4cnn(C)c4)nc3n2)c1    not met
9) COc1cc(OC)c(F)c(N(c2ccc3ncc(-c4cnn(C)c4)nc3n2)C(C)c2ncc[nH]2)c1 (stereo not drawn)    not met
10) COc1cc(OC)c(F)c(N(Cc2ncc[nH]2)c2ccc3ncc(-c4cnn(C)c4)nc3n2)c1 [23-Sulfate salt]    not met
11) CNCCn1ccnc1CN(c1ccc2ncc(-c3cnn(C)c3)nc2n1)c1cc(OC)cc(OC)c1F    met
12) COc1cc(OC)c(F)c(N(CC(C)(C)O)c2ccc3ncc(-c4cnn(CC(C)(C)O)c4)nc3n2)c1 (single isomer, unassigned)    met
13) COc1cc(OC)c(F)c(N(Cc2ncc[nH]2)c2ccc3ncc(-c4cnn(C)c4)nc3n2)c1 [Compound 23]    not met
